Tested on: Raji
Experiment: Antitumor-promoting activity assessed as TPA-induced EBV-early antigen activation in human Raji cells at 16 nmol after 48 hrs relative to TPA
Assay type: cell-based
Settings: human gammaherpesvirus 4
Threshold 40%: Activity strictly smaller gives Met, otherwise Not met.

INSERT INTO assay_data (structure_as_smiles, category) VALUES
  ('O=C1c2c(O)cc(O)cc2O[C@H](c2ccc(O)cc2)[C@H]1c1c(O)cc(O)c2c1O[C@H](c1ccc(O)cc1)[C@@H](O)C2=O', 'Not met'),
  ('O=C1C[C@@H](c2ccc(O)cc2)Oc2c1c(O)cc(O)c2[C@H]1C(=O)c2c(O)cc(O)cc2O[C@@H]1c1ccc(O)cc1', 'Not met'),
  ('O=C1c2c(O)cc(O)cc2O[C@@H](c2ccc(O)cc2)[C@@H]1c1c(O)cc(O)c2c(=O)c(O)c(-c3ccc(O)c(O)c3)oc12', 'Not met'),
  ('O=C1c2c(O)cc(O)cc2O[C@@H](c2ccc(O)cc2)[C@@H]1c1c(O)cc(O)c2c(=O)c(O)c(-c3ccc(O)cc3)oc12', 'Met'),
  ('O=C1c2c(O)cc(O)cc2O[C@H](c2ccc(O)cc2)[C@H]1c1c(O)cc(O)c2c1O[C@H](c1ccc(O)c(O)c1)[C@@H](O)C2=O', 'Not met'),
  ('O=C1C[C@@H](c2ccc(O)c(O)c2)Oc2c1c(O)cc(O)c2[C@H]1C(=O)c2c(O)cc(O)cc2O[C@@H]1c1ccc(O)cc1', 'Not met');

* * *

Recorded viability at 0.32 nmol by entry
Assay: Cytotoxicity against human Raji cells assessed as cell viability at 0.32 nmol by trypan blue staining
Format: cell-based
Conditions: read-out: Activity
metric: viability at 0.32 nmol

INSERT INTO measurements (structure_as_smiles, metric, result_value) VALUES
  ('O=C1c2c(O)cc(O)cc2O[C@@H](c2ccc(O)cc2)[C@@H]1c1c(O)cc(O)c2c(=O)c(O)c(-c3ccc(O)cc3)oc12', 'viability at 0.32 nmol', '> 80%'),
  ('O=C1c2c(O)cc(O)cc2O[C@H](c2ccc(O)cc2)[C@H]1c1c(O)cc(O)c2c1O[C@H](c1ccc(O)cc1)[C@@H](O)C2=O', 'viability at 0.32 nmol', '> 80%'),
  ('O=C1C[C@@H](c2ccc(O)cc2)Oc2c1c(O)cc(O)c2[C@H]1C(=O)c2c(O)cc(O)cc2O[C@@H]1c1ccc(O)cc1', 'viability at 0.32 nmol', '> 80%'),
  ('O=C1c2c(O)cc(O)cc2O[C@H](c2ccc(O)cc2)[C@H]1c1c(O)cc(O)c2c1O[C@H](c1ccc(O)c(O)c1)[C@@H](O)C2=O', 'viability at 0.32 nmol', '> 80%'),
  ('O=C1c2c(O)cc(O)cc2O[C@H](c2ccc(O)cc2)[C@H]1c1c(O)cc(O)c2c(=O)cc(-c3ccc(O)c(O)c3)oc12', 'viability at 0.32 nmol', '> 80%'),
  ('O=C1C[C@@H](c2ccc(O)c(O)c2)Oc2c1c(O)cc(O)c2[C@H]1C(=O)c2c(O)cc(O)cc2O[C@@H]1c1ccc(O)cc1', 'viability at 0.32 nmol', '> 80%'),
  ('O=C1c2c(O)cc(O)cc2O[C@@H](c2ccc(O)cc2)[C@@H]1c1c(O)cc(O)c2c(=O)c(O)c(-c3ccc(O)c(O)c3)oc12', 'viability at 0.32 nmol', '> 80%');

* * *

Assay: Cytotoxicity against human Raji cells assessed as cell viability at 16 nmol by trypan blue staining
Format: cell-based
Settings: read-out: Activity
metric: viability at 16 nmol

INSERT INTO measurements (structure_as_smiles, metric, result_value) VALUES
  ('O=C1C[C@@H](c2ccc(O)cc2)Oc2c1c(O)cc(O)c2[C@H]1C(=O)c2c(O)cc(O)cc2O[C@@H]1c1ccc(O)cc1', 'viability at 16 nmol', '> 80%'),
  ('O=C1c2c(O)cc(O)cc2O[C@H](c2ccc(O)cc2)[C@H]1c1c(O)cc(O)c2c(=O)cc(-c3ccc(O)c(O)c3)oc12', 'viability at 16 nmol', '> 80%'),
  ('O=C1c2c(O)cc(O)cc2O[C@@H](c2ccc(O)cc2)[C@@H]1c1c(O)cc(O)c2c(=O)c(O)c(-c3ccc(O)cc3)oc12', 'viability at 16 nmol', '> 80%');

* * *

Recorded viability at 32 nmol by entry
Assay: Cytotoxicity against human Raji cells assessed as cell viability at 32 nmol by trypan blue staining
Type: cell-based
Conditions: read-out: Activity
metric: viability at 32 nmol (%)

INSERT INTO measurements (structure_as_smiles, metric, result_value) VALUES
  ('O=C1C[C@@H](c2ccc(O)c(O)c2)Oc2c1c(O)cc(O)c2[C@H]1C(=O)c2c(O)cc(O)cc2O[C@@H]1c1ccc(O)cc1', 'viability at 32 nmol', 70),
  ('O=C1c2c(O)cc(O)cc2O[C@@H](c2ccc(O)cc2)[C@@H]1c1c(O)cc(O)c2c(=O)c(O)c(-c3ccc(O)c(O)c3)oc12', 'viability at 32 nmol', 70),
  ('O=C1c2c(O)cc(O)cc2O[C@H](c2ccc(O)cc2)[C@H]1c1c(O)cc(O)c2c1O[C@H](c1ccc(O)cc1)[C@@H](O)C2=O', 'viability at 32 nmol', 70),
  ('O=C1c2c(O)cc(O)cc2O[C@H](c2ccc(O)cc2)[C@H]1c1c(O)cc(O)c2c(=O)cc(-c3ccc(O)c(O)c3)oc12', 'viability at 32 nmol', 70),
  ('O=C1C[C@@H](c2ccc(O)cc2)Oc2c1c(O)cc(O)c2[C@H]1C(=O)c2c(O)cc(O)cc2O[C@@H]1c1ccc(O)cc1', 'viability at 32 nmol', 70),
  ('O=C1c2c(O)cc(O)cc2O[C@H](c2ccc(O)cc2)[C@H]1c1c(O)cc(O)c2c1O[C@H](c1ccc(O)c(O)c1)[C@@H](O)C2=O', 'viability at 32 nmol', 70),
  ('O=C1c2c(O)cc(O)cc2O[C@@H](c2ccc(O)cc2)[C@@H]1c1c(O)cc(O)c2c(=O)c(O)c(-c3ccc(O)cc3)oc12', 'viability at 32 nmol', 70);

* * *

Tested on: Raji
Assay: Antitumor-promoting activity assessed as TPA-induced EBV-early antigen activation in human Raji cells at 0.32 nmol after 48 hrs relative to TPA
Format: cell-based
Settings: human gammaherpesvirus 4
Recorded Activity by entry
metric: Activity (%)

INSERT INTO measurements (structure_as_smiles, metric, unit_label, result_value) VALUES
  ('O=C1c2c(O)cc(O)cc2O[C@H](c2ccc(O)cc2)[C@H]1c1c(O)cc(O)c2c1O[C@H](c1ccc(O)cc1)[C@@H](O)C2=O', 'Activity', '%', 95.7),
  ('O=C1c2c(O)cc(O)cc2O[C@@H](c2ccc(O)cc2)[C@@H]1c1c(O)cc(O)c2c(=O)c(O)c(-c3ccc(O)c(O)c3)oc12', 'Activity', '%', 94.4),
  ('O=C1C[C@@H](c2ccc(O)cc2)Oc2c1c(O)cc(O)c2[C@H]1C(=O)c2c(O)cc(O)cc2O[C@@H]1c1ccc(O)cc1', 'Activity', '%', 100),
  ('O=C1c2c(O)cc(O)cc2O[C@@H](c2ccc(O)cc2)[C@@H]1c1c(O)cc(O)c2c(=O)c(O)c(-c3ccc(O)cc3)oc12', 'Activity', '%', 89.4),
  ('O=C1C[C@@H](c2ccc(O)c(O)c2)Oc2c1c(O)cc(O)c2[C@H]1C(=O)c2c(O)cc(O)cc2O[C@@H]1c1ccc(O)cc1', 'Activity', '%', 90.6),
  ('O=C1c2c(O)cc(O)cc2O[C@H](c2ccc(O)cc2)[C@H]1c1c(O)cc(O)c2c1O[C@H](c1ccc(O)c(O)c1)[C@@H](O)C2=O', 'Activity', '%', 100),
  ('O=C1c2c(O)cc(O)cc2O[C@H](c2ccc(O)cc2)[C@H]1c1c(O)cc(O)c2c(=O)cc(-c3ccc(O)c(O)c3)oc12', 'Activity', '%', 91.2);
